Test system: S.aureus SK 23390
Test name: In vitro antibacterial activity (MIC)
Format: cell-based
Recorded conditions: Staphylococcus aureus, SK23390; S.aureus SK 23390, in vitro; read-out: MIC
Measured attribute: MIC (µg/mL)
Numbers only; they are read as µg/mL.

Study these solved cases before continuing.
COC(=O)COc1ccc([C@@H](N)C(=O)NC2C(=O)N3C(C(=O)O)=C(CSc4nnc(C)s4)CSC23)cc1 (some centres unmarked) [Compound No. 96826]: 3.1
NC(=O)COc1ccc([C@@H](N)C(=O)NC2C(=O)N3C(C(=O)O)=C(CSc4c[nH]nn4)CSC23)cc1 (some centres unmarked) [Compound No. 91726]: 6.3

Let's switch to this compound now.
# input I have this compound here, CC(=O)OCC1=C(C(=O)O)N2C(=O)C(NC(=O)[C@H](N)c3ccc(OCC(=O)O)cc3)C2SC1 (some centres unmarked) [Compound No. 60326] , and I need its recorded MIC.
# output 12.5

----------
MIC by entry:
System: E.coli SK 12140
Test name: In vitro antibacterial activity (MIC)
Type: cell-based
Recorded conditions: Escherichia coli, SK12140; E.coli SK 12140, in vitro; read-out: MIC
Experimental: The compounds of this invention have antibacterial activity against Gram-positive and Gram-negative organisms. Minimum inhibitory concentrations (MIC's) ranged from 0.4 to >200 μg/ml in in vitro testing.

Study these solved cases before continuing.
NC(=O)COc1ccc([C@@H](N)C(=O)NC2C(=O)N3C(C(=O)O)=C(CSc4c[nH]nn4)CSC23)cc1 (stereo partly drawn): 50 µg/mL
CC(=O)OCC1=C(C(=O)O)N2C(=O)C(NC(=O)[C@H](N)c3ccc(OCC(=O)O)cc3)C2SC1 (stereo partly drawn): 6.3 µg/mL
Cc1nnc(SCC2=C(C(=O)O)N3C(=O)C(NC(=O)[C@H](N)c4ccc(OCC(=O)O)cc4)C3SC2)s1 (stereo partly drawn): 6.3 µg/mL
Cc1nnc(SCC2=C(C(=O)O)N3C(=O)C(NC(=O)[C@H](N)c4ccc(SCC(N)=O)cc4)C3SC2)s1 (stereo partly drawn): 25 µg/mL
N[C@@H](C(=O)NC1C(=O)N2C(C(=O)O)=C(CSc3c[nH]nn3)CSC12)c1ccc(SCC(=O)O)cc1 (stereo partly drawn): 25 µg/mL

Let's switch to this molecule now.
# input I have this molecule here, Cc1nnc(SCC2=C(C(=O)O)N3C(=O)C(NC(=O)[C@H](N)c4ccc(OCC(N)=O)cc4)C3SC2)s1 (stereo partly drawn) , and I need its recorded MIC.
# output 6.3 µg/mL

----------
MIC by entry:
Tested on: E.coli SK 12140
Test name: In vitro antibacterial activity (MIC)
Format: cell-based
Recorded conditions: Escherichia coli, SK12140; E.coli SK 12140, in vitro; read-out: MIC

COC(=O)COc1ccc([C@@H](N)C(=O)NC2C(=O)N3C(C(=O)O)=C(CSc4c[nH]nn4)CSC23)cc1 (stereo partly drawn) [Compound No. 19736]: 50 µg/mL

# input # returns recorded MIC (system: E.coli SK 12140) for Cc1nnc(SCC2=C(C(=O)O)N3C(=O)C(NC(=O)[C@H](N)c4ccc(NCC(=O)O)cc4)C3SC2)s1 (stereo partly drawn) [Compound No. 48536]
# output 3.1 µg/mL

# input Item: Cc1nnc(SCC2=C(C(=O)O)N3C(=O)C(NC(=O)[C@H](N)c4ccc(SCC(=O)O)cc4)C3SC2)s1 (stereo partly drawn) [Compound No. 03616]
# output 6.3 µg/mL

----------
Test system: Klebs.pneumo. 4200
Test name: In vivo activity (ED50) against Klebs.pneumo. 4200
Recorded conditions: sc, Klebs.pneumo. 4200, s.c.; read-out: ED50
Measured attribute: log10 of ED50 (log10 of the value in mg/kg)
Values reflect log10 of reported ED50 (mg/kg).

Cc1nnc(SCC2=C(C(=O)O)N3C(=O)C(NC(=O)[C@H](N)c4ccc(SCCC(=O)O)cc4)C3SC2)s1 (stereo partly shown) [Compound No. 61726]: 1.70
COC(=O)COc1ccc([C@@H](N)C(=O)NC2C(=O)N3C(C(=O)O)=C(CSc4nnnn4C)CSC23)cc1 (stereo partly shown) [Compound No. 26436]: 0.18
Cc1nnc(SCC2=C(C(=O)O)N3C(=O)C(NC(=O)[C@H](N)c4ccc(SCC(N)=O)cc4)C3SC2)s1 (stereo partly shown) [Compound No. 86526]: 0.86

# input # returns recorded log10 of ED50 (system: Klebs.pneumo. 4200) for Cn1nnnc1SCC1=C(C(=O)O)N2C(=O)C(NC(=O)[C@H](N)c3ccc(OCC(N)=O)cc3)C2SC1 (stereo partly shown) [Compound No. 32626]
# output 1.19

# input Item: COC(=O)COc1ccc([C@@H](N)C(=O)NC2C(=O)N3C(C(=O)O)=C(CSc4nnc(C)s4)CSC23)cc1 (stereo partly shown) [Compound No. 96826]
# output 0.86

# input Item: Cc1nnc(SCC2=C(C(=O)O)N3C(=O)C(NC(=O)[C@H](N)c4ccc(OCC(N)=O)cc4)C3SC2)s1 (stereo partly shown) [Compound No. 71816]
# output 0.88

# input Item: Cc1nnc(SCC2=C(C(=O)O)N3C(=O)C(NC(=O)C(N)c4ccc(OCC(N)=O)cc4)C3SC2)s1 (stereo not shown) [*71816]
# output 1.06

----------
Tested on: Klebs.pneumo. 4200
Test name: In vivo activity (ED50) against Klebs.pneumo. 4200
Recorded conditions: sc, Klebs.pneumo. 4200, s.c.; read-out: ED50
# note: boundary value 8 mg/kg maps to Criterion not met; ED50 below it maps to Criterion met

Solved cases (5 shown):
CC(=O)OCC1=C(C(=O)O)N2C(=O)C(NC(=O)[C@H](N)c3ccc(OCC(=O)O)cc3)C2SC1 (stereo partly shown) [Compound No. 60326]: Criterion not met
Cc1nnc(SCC2=C(C(=O)O)N3C(=O)C(NC(=O)[C@H](N)c4ccc(OCC(=O)O)cc4)C3SC2)s1 (stereo partly shown) [Compound No. 59216]: Criterion met
N[C@@H](C(=O)NC1C(=O)N2C(C(=O)O)=C(CSc3c[nH]nn3)CSC12)c1ccc(OCC(=O)O)cc1 (stereo partly shown) [Compound No. 03326]: Criterion met
Cn1nnnc1SCC1=C(C(=O)O)N2C(=O)C(NC(=O)[C@H](N)c3ccc(SCC(=O)O)cc3)C2SC1 (stereo partly shown) [Compound No. 70326]: Criterion met
Cn1nnnc1SCC1=C(C(=O)O)N2C(=O)C(NC(=O)[C@H](N)c3ccc(OCC(=O)O)cc3)C2SC1 (stereo partly shown) [Compound No. 42526]: Criterion met

# input hey, is ED50 for N[C@@H](C(=O)NC1C(=O)N2C(C(=O)O)=C(CSc3c[nH]nn3)CSC12)c1ccc(SCC(=O)O)cc1 (stereo partly shown) [Compound No. 04726] lower than 8 mg/kg or not?
# output Criterion not met

----------
Test system: Kleb. pneumo. SK 4200
Test name: In vitro antibacterial activity (MIC)
Format: cell-based
Recorded conditions: Kleb. pneumo. SK 4200, in vitro; read-out: MIC
# note: boundary value 6 µg/mL maps to false (0); MIC below it maps to true (1)

Solved cases (4 shown):
Cn1nnnc1SCC1=C(C(=O)O)N2C(=O)C(NC(=O)[C@H](N)c3ccc(OCC(=O)O)cc3)C2SC1 (some centres unmarked) [Compound No. 42526]: true (1)
Cc1nnc(SCC2=C(C(=O)O)N3C(=O)C(NC(=O)[C@H](N)c4ccc(SCCC(=O)O)cc4)C3SC2)s1 (some centres unmarked) [Compound No. 61726]: false (0)
Cc1nnc(SCC2=C(C(=O)O)N3C(=O)C(NC(=O)[C@H](N)c4ccc(OCC(N)=O)cc4)C3SC2)s1 (some centres unmarked) [Compound No. 71816]: true (1)
COC(=O)COc1ccc([C@@H](N)C(=O)NC2C(=O)N3C(C(=O)O)=C(CSc4c[nH]nn4)CSC23)cc1 (some centres unmarked) [Compound No. 19736]: false (0)

# input hey, is MIC for CC1=C(C(=O)O)N2C(=O)C(NC(=O)[C@H](N)c3ccc(OCC(N)=O)cc3)C2SC1 (some centres unmarked) [Compound No. 00036] lower than 6 µg/mL or not?
# output false (0)

# input Item: COC(=O)COc1ccc([C@@H](N)C(=O)NC2C(=O)N3C(C(=O)O)=C(CSc4nnc(C)s4)CSC23)cc1 (some centres unmarked) [Compound No. 96826]
# output false (0)

# input Item: Cc1nnc(SCC2=C(C(=O)O)N3C(=O)C(NC(=O)[C@H](N)c4ccc(SCC(=O)O)cc4)C3SC2)s1 (some centres unmarked) [Compound No. 03616]
# output true (1)

# input Item: Cn1nnnc1SCC1=C(C(=O)O)N2C(=O)C(NC(=O)[C@H](N)c3ccc(OCC(N)=O)cc3)C2SC1 (some centres unmarked) [Compound No. 32626]
# output false (0)

# input Item: CC(=O)OCC1=C(C(=O)O)N2C(=O)C(NC(=O)[C@H](N)c3ccc(OCC(=O)O)cc3)C2SC1 (some centres unmarked) [Compound No. 60326]
# output false (0)

# input Item: Cc1nnc(SCC2=C(C(=O)O)N3C(=O)C(NC(=O)[C@H](N)c4ccc(SCC(N)=O)cc4)C3SC2)s1 (some centres unmarked) [Compound No. 86526]
# output false (0)

From: patent US4022895A
